Target: MAP kinase-activated protein kinase 3 (Homo sapiens) (UniProt Q16644)
Sequence (Q16644 whole entry, looked up): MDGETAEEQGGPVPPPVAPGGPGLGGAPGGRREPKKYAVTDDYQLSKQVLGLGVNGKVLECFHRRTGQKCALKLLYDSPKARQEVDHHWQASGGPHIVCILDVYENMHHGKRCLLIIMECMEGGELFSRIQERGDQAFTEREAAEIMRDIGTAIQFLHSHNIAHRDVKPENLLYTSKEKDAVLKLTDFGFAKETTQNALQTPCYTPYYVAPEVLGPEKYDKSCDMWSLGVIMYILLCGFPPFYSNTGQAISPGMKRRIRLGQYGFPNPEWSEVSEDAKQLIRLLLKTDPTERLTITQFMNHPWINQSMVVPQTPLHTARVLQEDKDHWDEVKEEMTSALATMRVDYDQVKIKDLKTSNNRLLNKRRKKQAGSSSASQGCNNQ
Details: at 0.1 µM
Description: GSK_PKIS: MAPKAPK3 mean inhibition at 0.1 uM [Nanosyn]
Answer Not fulfilled if inhibition is under 4%, and Fulfilled if it is 4% or more.

Study these solved cases before continuing.
Compound: CCN(CC)Cc1ccc(Nc2nccc(-c3cnn4ncccc34)n2)cc1
Group: Not fulfilled
--
Compound: NC(=O)c1ccc(Oc2nccc(-c3c(-c4ccc(F)cc4)ncn3C3CCNCC3)n2)cc1
Group: Fulfilled
--
Compound: Nc1nccc(-c2c(-c3ccc(F)cc3)ncn2C2CCC(O)CC2)n1 (stereo not given)
Group: Fulfilled

Item Cc1nnc(-c2ccc(C)c(-c3ccc(C(=O)NCc4ccc(Cl)cc4)cc3)c2)o1 with inhibition of 4% or above? Fulfilled

Is reported inhibition greater than or equal to 4% here: NCc1ccc(-n2c(-c3nonc3N)nc3cnccc32)cc1 Fulfilled
